system: SKBR3 cells; assay: SKBR3 Cell Viability Assay; format: cell-based; conditions: 72 hours, CellTiter Glo, read-out: MCL1 CV SKBR3 EC50
metric: EC50 (nM)
Numbers only, in nM.

molecule_smiles=COc1nn(C)cc1C(=O)N[S@@]1(=O)=NC(=O)c2ccc3c(c2)N(C[C@@H]2CC[C@H]2[C@@](O)(CC(=O)N2CC(N4CCOCC4)C2)/C=C/C[C@H](C)C1)C[C@@]1(CCCc2cc(Cl)ccc21)CO3 metric=EC50 recorded_value=133

The record that follows has no EC50 shown yet.
Input line: May I ask what EC50 has been recorded for COc1nn(C)cc1C(=O)N[S@@]1(=O)=NC(=O)c2ccc3c(c2)N(C[C@@H]2CC[C@H]2[C@@H](OC)/C=C/[C@H](NC(C)=O)[C@H](C)C1)C[C@@]1(CCCc2cc(Cl)ccc21)CO3 ?
Output line: 2520

* * *

test system: SKBR3 cells; test: SKBR3 Cell Viability Assay; format: cell-based; conditions: 72 hours, CellTiter Glo, read-out: MCL1 CV SKBR3 EC50
Kindly apply the following: label 1 if EC50 is less than 200 nM, label 0 in every other case.

See these solved cases before continuing.
molecule="COc1nn(C)cc1C(=O)N[S@@]1(=O)=NC(=O)c2ccc3c(c2)N(C[C@@H]2CC[C@H]2C/C=C/C[C@H](C)C1)C[C@@]1(CCCc2cc(Cl)ccc21)CO3 (mixture of isomers) [Example 130]" discrete_label="label 0"
molecule="CC[C@H]1C/C=C/[C@H](OC)[C@@H]2CC[C@H]2CN2C[C@@]3(CCCc4cc(Cl)ccc43)COc3ccc(cc32)C(=O)N=[S@@](=O)(NC(=O)c2cnn(C)c2)C1 [Example 43]" discrete_label="label 0"
molecule="COc1nn(C)cc1C(=O)N[S@@]1(=O)=NC(=O)c2ccc3c(c2)N(C[C@@H]2CC[C@H]2[C@@H](OC)C[C@H]2C[C@H](CCN(C)C)O[C@@H]2[C@H](C)C1)C[C@@]1(CCCc2cc(Cl)ccc21)CO3 [Example 142]" discrete_label="label 1"
molecule="COc1nn(C)cc1C(=O)N[S@@]1(=O)=NC(=O)c2ccc3c(c2)N(C[C@@H]2CC[C@H]2[C@@H](OC)/C=C/[C@@H](OC)[C@H](C)[C@H]1C)C[C@@]1(CCCc2cc(Cl)ccc21)CO3 [Example 69]" discrete_label="label 0"
molecule="COc1nn(C)cc1C(=O)N[S@@]1(=O)=NC(=O)c2ccc3c(c2)N(C[C@@H]2CC[C@H]2[C@@H](OC)C[C@@H]2[C@H](OC[C@H]2C)[C@H](C)C1)C[C@@]1(CCCc2cc(Cl)ccc21)CO3 [Example 145]" discrete_label="label 1"

Input line: Quick check: EC50 of COc1nn(C)cc1C(=O)N[S@@]1(=O)=NC(=O)c2ccc3c(c2)N(C[C@@H]2CC[C@H]2[C@H](OC)/C=C/[C@H](OC(C)=O)[C@H](C)[C@H]1C)C[C@@]1(CCCc2cc(Cl)ccc21)CO3 [Example 92] under 200 nM?
Output line: label 0

Input line: Criterion: EC50 strictly below 200 nM. Is it met by COc1nn(C)cc1C(=O)N[S@@]1(=O)=NC(=O)c2ccc3c(c2)N(C[C@@H]2CC[C@H]2[C@@H](OCCN2CC(N(C)C)C2)/C=C/C[C@H](C)C1)C[C@@]1(CCCc2cc(Cl)ccc21)CO3 [Example 58] ?
Output line: label 1

Input line: Just wondering, is EC50 of COc1nn(C)cc1C(=O)N[S@@]1(=O)=NC(=O)c2ccc3c(c2)N(C[C@@H]2CC[C@H]2C(=O)/C=C/C[C@H](C)[C@H]1C)C[C@@]1(CCCc2cc(Cl)ccc21)CO3 [Example 48] below 200 nM?
Output line: label 1

Input line: Quick check: EC50 of COc1nnc(NS2(=O)=NC(=O)c3ccc4c(c3)N(C[C@@H]3CC[C@H]3[C@@H](OC)/C=C/C[C@H](C)C2)C[C@@]2(CCCc3cc(Cl)ccc32)CO4)c2nn(C)cc12 (stereo partly drawn) [Example 17] under 200 nM?
Output line: label 0

* * *

Kindly state log10 of IC50 for each of the entries shown.
molecular target: MCL1/Bim (Homo sapiens (Human)); assay: MCL1/Bim Binding AlphaLISA Assay; conditions: recombinant human 6xHis-MCL1 (171-327), biotinylated Bim peptide (51-76)
Short version: log10 scale, IC50, nM.

compound="CO[C@H]1/C=C/C[C@H](C)C[S@@](=O)(NC(=O)c2cn(C)nc2N2CCN3CCOC[C@@H]3C2)=NC(=O)c2ccc3c(c2)N(C[C@@H]2CC[C@H]21)C[C@@]1(CCCc2cc(Cl)ccc21)CO3 [Example 23]" recorded_value=-1.08
compound="CCO/C1=C/C[C@H](OC)[C@@H]2CC[C@H]2CN2C[C@@]3(CCCc4cc(Cl)ccc43)COc3ccc(cc32)C(=O)N=[S@](=O)(NC(=O)c2cn(C)nc2OC)[C@H](C)[C@H]1C [Example 158]" recorded_value=0.59
compound="COc1nn(C)cc1C(=O)N[S@@]1(=O)=NC(=O)c2ccc3c(c2)N(C[C@@H]2CC[C@H]2[C@@](CN2CCN4CCOC[C@@H]4C2)(OC)/C=C/C[C@H](C)C1)C[C@@]1(CCCc2cc(Cl)ccc21)CO3 [Example 112]" recorded_value=-1.07

Provide reported log10 of IC50 for each item, in the same order as listed.
1. CO[C@H]1/C=C/[C@H](OC)CC[S@@](=O)(Nc2ncnc3nn(C)cc23)=NC(=O)c2ccc3c(c2)N(C[C@@H]2CC[C@H]21)C[C@@]1(CCCc2cc(Cl)ccc21)CO3 [Example 71]
2. CO[C@H]1/C=C/C[C@H](C)C[S@@](=O)(NC(=O)c2cn(C)c(=O)n2C)=NC(=O)c2ccc3c(c2)N(C[C@@H]2CC[C@H]21)C[C@@]1(CCCc2cc(Cl)ccc21)CO3 [Example 208]
3. COc1nn(C)cc1C(=O)N[S@@]1(=O)=NC(=O)c2ccc3c(c2)N(C[C@@H]2CC[C@H]2[C@@H](OC)/C=C/[C@H](F)[C@H](C)C1)C[C@@]1(CCCc2cc(Cl)ccc21)CO3 [Example 127]

Output line:
-0.05
-0.89
-1.23

Go through the items and report each one's log10 of IC50.
1. COc1nn(C)cc1C(=O)N[S@@]1(=O)=NC(=O)c2ccc3c(n2)N(C[C@@H]2CC[C@H]2[C@@H](OC)/C=C\C[C@H](C)C1)C[C@@]1(CCCc2cc(Cl)ccc21)CO3 [Example 192]
2. COc1nn(C)cc1C(=O)N[S@@]1(=O)=NC(=O)c2ccc3c(c2)N(C[C@@H]2CC[C@H]2[C@@H](OC)/C=C/[C@@H](OC)[C@H](C)[C@H]1C)C[C@@]1(CCCc2cc(Cl)ccc21)CO3 [Example 69]

Output line:
[-1.52, 0.32]

Please state, for each entry, its recorded log10 of IC50.
1. COc1nn(C)cc1C(=O)N[S@@]1(=O)=NC(=O)c2ccc3c(c2)N(C[C@@H]2CC[C@H]2[C@@](C)(O)/C=C/C[C@H](C)C1)C[C@@]1(CCCc2cc(Cl)ccc21)CO3 [Example 94]
2. COc1nn(C)cc1C(=O)N[S@@]1(=O)=NC(=O)c2ccc3c(c2)N(C[C@@H]2CC[C@H]2[C@H](OC)/C=C/[C@H](OC(C)=O)[C@H](C)[C@H]1C)C[C@@]1(CCCc2cc(Cl)ccc21)CO3 [Example 92]

Output line:
[-1.08, 0.41]

* * *

biological target: MCL1/Bim (Homo sapiens (Human), UniProt Q07820); test: MCL1/Bim Binding AlphaLISA Assay; settings: recombinant human 6xHis-MCL1 (171-327), biotinylated Bim peptide (51-76)
Sequence (Q07820 171-327): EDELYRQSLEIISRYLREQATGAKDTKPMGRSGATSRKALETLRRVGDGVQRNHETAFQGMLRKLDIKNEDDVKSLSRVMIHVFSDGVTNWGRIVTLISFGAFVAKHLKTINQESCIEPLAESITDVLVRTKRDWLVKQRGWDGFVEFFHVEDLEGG
Kindly note that classification relies on IC50 with these boundaries: bucket 1: < 0.07 nM; bucket 2: ≥ 0.07 nM and < 0.2 nM; bucket 3: ≥ 0.2 nM

compound="COc1nn(C)cc1C(=O)N[S@@]1(=O)=NC(=O)c2ccc3c(c2)N(C[C@@H]2CC[C@H]2[C@@](O)(CC(=O)N2CCN(C4COC4)CC2)/C=C/C[C@H](C)C1)C[C@@]1(CCCc2cc(Cl)ccc21)CO3 [Example 104]" discrete_label="bucket 1"
compound="C[C@@H]1[C@@H](C)C/C=C/[C@H](O)[C@@H]2CC[C@H]2CN2C[C@@]3(CCCc4cc(Cl)ccc43)COc3ccc(cc32)C(=O)N=[S@]1(=O)Nc1ncnc2nn(C)cc12 [Example 34]" discrete_label="bucket 2"
compound="COc1nn(C)cc1C(=O)N[S@@]1(=O)=NC(=O)c2ccc3c(c2)N(C[C@@H]2CC[C@H]2[C@@](O)(CC(=O)N2CC(N4CCOCC4)C2)/C=C/C[C@H](C)C1)C[C@@]1(CCCc2cc(Cl)ccc21)CO3 [Example 106]" discrete_label="bucket 1"
compound="CO[C@H]1/C=C/C[C@H](C)C[S@@](=O)(Nc2cnc(C#N)cn2)=NC(=O)c2ccc3c(c2)N(C[C@@H]2CC[C@H]21)C[C@@]1(CCCc2cc(Cl)ccc21)CO3 [Example 5]" discrete_label="bucket 3"
compound="COc1nn(C)cc1C(=O)N[S@@]1(=O)=NC(=O)c2ccc3c(c2)N(C[C@@H]2CC[C@H]2[C@@H](OC)/C=C/[C@H](OCCN2CCN(C)CC2)[C@H](C)C1)C[C@@]1(CCCc2cc(Cl)ccc21)CO3 [Example 82]" discrete_label="bucket 1"
compound="CO[C@H]1/C=C/C[C@H](C)C[S@@](=O)(Nc2nc(C)nc3nn(C)cc23)=NC(=O)c2ccc3c(c2)N(C[C@@H]2CC[C@H]21)C[C@@]1(CCCc2cc(Cl)ccc21)CO3 [Example 12]" discrete_label="bucket 2"
compound="CO[C@H]1/C=C/C[C@H](C)C[S@@](=O)(NC(=O)NCC2CC2)=NC(=O)c2ccc3c(c2)N(C[C@@H]2CC[C@H]21)C[C@]1(CO3)C[C@@H]2C[C@@H]2c2cc(Cl)ccc21 [Example 165]" discrete_label="bucket 2"
compound="COC1CC(C(=O)N[S@@]2(=O)=NC(=O)c3ccc4c(n3)N(C[C@@H]3CC[C@H]3[C@@H](OC)/C=C/C[C@H](C)C2)C[C@@]2(CCCc3cc(Cl)ccc32)CO4)C1 (stereo partly shown) [Example 195]" discrete_label="bucket 1"
compound="CC[C@H]1C/C=C/[C@H](OC)[C@@H]2CC[C@H]2CN2C[C@@]3(CCCc4cc(Cl)ccc43)COc3ccc(cc32)C(=O)N=[S@@](=O)(NC(=O)c2cnn(C)c2)C1 [Example 43]" discrete_label="bucket 3"
compound="COc1nn(C)cc1C(=O)N[S@@]1(=O)=NC(=O)c2ccc3c(c2)N(C[C@@H]2CC[C@H]2[C@@](CN2CC(OC)C2)(OC)/C=C/C[C@H](C)C1)C[C@@]1(CCCc2cc(Cl)ccc21)CO3 [Example 117]" discrete_label="bucket 1"

Input line: Quick check: band for COc1nn(C)cc1C(=O)N[S@@]1(=O)=NC(=O)c2ccc3c(n2)N(C[C@@H]2CC[C@H]2[C@@H](OC)/C=C/[C@@H](OC)[C@H](C)C1)C[C@@]1(CCCc2cc(Cl)ccc21)CO3 [Example 197]
Output line: bucket 3

Input line: Into which bin does this compound go? CO[C@H]1/C=C/CCC[S@@](=O)(NC(=O)c2cc3n(c2)CCOC3)=NC(=O)c2ccc3c(c2)N(C[C@@H]2CC[C@H]21)C[C@]1(CO3)SCCc2cc(Cl)ccc21 [Example 184]
Output line: bucket 3

Input line: Assign a bin to COc1nn(C)cc1C(=O)N[S@@]1(=O)=NC(=O)c2ccc3c(c2)N(C[C@@H]2CC[C@H]2[C@@H](OC)/C=C/[C@@H]2OCC[C@@H]1[C@H]2C)C[C@@]1(CCCc2cc(Cl)ccc21)CC3 [Example 149]
Output line: bucket 3

Input line: Class label required: COc1nn(C)cc1C(=O)N[S@@]1(=O)=NC(=O)c2ccc3c(c2)N(C[C@@H]2CC[C@H]2[C@@H](OC)/C=C/[C@H](OCc2ncccn2)[C@H](C)C1)C[C@@]1(CCCc2cc(Cl)ccc21)CO3 [Example 74]
Output line: bucket 1

Input line: Category lookup for the compound COc1nn(C)cc1C(=O)N[S@]1(=O)=NC(=O)c2ccc3c(c2)N(C[C@@H]2CC[C@H]2C(=O)/C=C/C[C@H](C)C1)C[C@@]1(CCCc2cc(Cl)ccc21)CO3 [Example 47]
Output line: bucket 2

Input line: Band of C[C@H]1C/C=C/[C@H](O)[C@@H]2CC[C@H]2CN2C[C@@]3(CCCc4cc(Cl)ccc43)COc3ccc(cc32)C(=O)N=[S@](=O)(Nc2nc(N)nc3nn(C)cc23)C1 [Example 32] ?
Output line: bucket 1
